# System name: FLAG-tagged full length PHD2 (Homo sapiens)
# Construct: FLAG-tagged full length PHD2; FLAG; made in house; host or cells: baculovirus-infected Sf9 cells
# Sequence (Q9GZT9 whole entry): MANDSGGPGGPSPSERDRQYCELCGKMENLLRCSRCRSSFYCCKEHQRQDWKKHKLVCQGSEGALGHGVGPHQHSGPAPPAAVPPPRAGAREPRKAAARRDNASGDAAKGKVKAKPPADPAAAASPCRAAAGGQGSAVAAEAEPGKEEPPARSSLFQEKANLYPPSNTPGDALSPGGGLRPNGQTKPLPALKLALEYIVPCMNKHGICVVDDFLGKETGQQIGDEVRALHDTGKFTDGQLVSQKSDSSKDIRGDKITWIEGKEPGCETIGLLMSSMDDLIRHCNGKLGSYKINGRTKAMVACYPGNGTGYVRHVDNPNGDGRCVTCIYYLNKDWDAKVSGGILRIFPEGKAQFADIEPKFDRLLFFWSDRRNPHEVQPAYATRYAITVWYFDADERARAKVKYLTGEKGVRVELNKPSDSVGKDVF
# Assay name: HIF-PHD2 time resolved fluorescence inhibition assay (HIF-1α peptide hydroxylation, VHL complex detection)
# Format: biochemical
# Stated conditions: 0.2 μM 2-oxoglutarate, 0.5 μM HIF-1α peptide, 2 hr at room temperature
pIC50: −log10 of the molar value.
Observation type: pIC50

Example compounds with recorded pIC50:
{"Substance smiles": "O=C(O)CNC(=O)c1c(O)c2cccnc2n(Cc2nc(-c3ccccc3)cs2)c1=O", "Observed": 9.10}
{"Substance smiles": "O=C(O)CNC(=O)c1c(O)c2cccnc2n(Cc2ccc(C(F)(F)F)cc2F)c1=O", "Observed": 8.80}
{"Substance smiles": "C[C@H](NC(=O)c1c(O)c2cccnc2n(Cc2ccc(C(F)(F)F)cc2)c1=O)C(=O)O", "Observed": 8.22}
{"Substance smiles": "N#Cc1ccc(Cn2c(=O)c(C(=O)NCC(=O)O)c(O)c3cccnc32)cc1", "Observed": 8.80}
{"Substance smiles": "Cc1nc(Cn2c(=O)c(C(=O)NCC(=O)O)c(O)c3cccnc32)sc1C", "Observed": 8.89}

[A] CCOC(=O)Cn1c(=O)c(C(=O)NCC(=O)O)c(O)c2cccnc21
[B] O=C(O)CNC(=O)c1c(O)c2cc(Cl)cnc2n(Cc2nc3ccccc3s2)c1=O
[C] O=C(O)CNC(=O)c1c(O)c2cccnc2n(Cc2nc3ccccc3s2)c1=O
Query: Descending sort on pIC50 required. Your task in answering is to list the labels in the requested order.
Result: C, B, A

These entries and their values trace back to patent US20100056563A1.
